pKi reference
target: UniProtKB P20272
Sequence (P20272 whole entry): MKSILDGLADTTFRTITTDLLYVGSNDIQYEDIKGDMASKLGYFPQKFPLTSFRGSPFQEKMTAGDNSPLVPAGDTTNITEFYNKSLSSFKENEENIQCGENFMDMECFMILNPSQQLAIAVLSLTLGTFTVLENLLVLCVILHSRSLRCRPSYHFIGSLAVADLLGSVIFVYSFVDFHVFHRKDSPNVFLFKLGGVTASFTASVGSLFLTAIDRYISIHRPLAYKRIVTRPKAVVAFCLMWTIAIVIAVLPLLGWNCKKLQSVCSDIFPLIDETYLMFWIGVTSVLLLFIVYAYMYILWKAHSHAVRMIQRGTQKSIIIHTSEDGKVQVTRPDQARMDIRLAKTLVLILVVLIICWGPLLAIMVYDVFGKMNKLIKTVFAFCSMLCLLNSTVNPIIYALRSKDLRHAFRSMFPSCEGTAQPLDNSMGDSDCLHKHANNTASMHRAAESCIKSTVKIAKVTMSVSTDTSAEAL
pKi: −log10 of the molar value.
measurement_kind: pKi

{"columns": ["smiles_notation", "reported"],
 "data": [
  ["CC1(C)Oc2cc(C3(CCCCCCN4CCOCC4)CCC3)cc(O)c2[C@@H]2C[C@H](O)CC[C@H]21", 7.36],
  ["CC1(C)Oc2cc(C3(CCCCC#N)CCC3)cc(O)c2[C@@H]2C[C@@H](O)CC[C@H]21", 8.72],
  ["CC1(C)Oc2cc(C3(CCCCN=[N+]=[N-])CCC3)cc(O)c2[C@@H]2C[C@H](O)CC[C@H]21", 9.24],
  ["CC1(C)Oc2cc(C3(CCCCBr)CCC3)cc(O)c2[C@@H]2C[C@@H](O)CC[C@H]21", 8.95],
  ["CC1(C)Oc2cc(C3(CCCCBr)CCC3)cc(O)c2[C@@H]2C[C@H](O)CC[C@H]21", 8.92],
  ["CC1(C)Oc2cc(C3(CCCCN=[N+]=[N-])CCC3)cc(O)c2[C@@H]2C[C@@H](O)CC[C@H]21", 8.09],
  ["CC1(C)Oc2cc(C3(CCCCCCBr)CCC3)cc(O)c2[C@@H]2CC(=O)CC[C@H]21", 9.34],
  ["CC1(C)Oc2cc(C3(CCCCC#N)CCC3)cc(O)c2[C@@H]2CC(=O)CC[C@H]21", 8.47]
]}
